Field: IC50. Provide a value for each of the compounds that follow.
testedOn: PDGF-Ra (Homo sapiens, UniProt P16234)
Construct: host or cells: G-292 human osteosarcoma cells
Sequence (P16234 24-1089): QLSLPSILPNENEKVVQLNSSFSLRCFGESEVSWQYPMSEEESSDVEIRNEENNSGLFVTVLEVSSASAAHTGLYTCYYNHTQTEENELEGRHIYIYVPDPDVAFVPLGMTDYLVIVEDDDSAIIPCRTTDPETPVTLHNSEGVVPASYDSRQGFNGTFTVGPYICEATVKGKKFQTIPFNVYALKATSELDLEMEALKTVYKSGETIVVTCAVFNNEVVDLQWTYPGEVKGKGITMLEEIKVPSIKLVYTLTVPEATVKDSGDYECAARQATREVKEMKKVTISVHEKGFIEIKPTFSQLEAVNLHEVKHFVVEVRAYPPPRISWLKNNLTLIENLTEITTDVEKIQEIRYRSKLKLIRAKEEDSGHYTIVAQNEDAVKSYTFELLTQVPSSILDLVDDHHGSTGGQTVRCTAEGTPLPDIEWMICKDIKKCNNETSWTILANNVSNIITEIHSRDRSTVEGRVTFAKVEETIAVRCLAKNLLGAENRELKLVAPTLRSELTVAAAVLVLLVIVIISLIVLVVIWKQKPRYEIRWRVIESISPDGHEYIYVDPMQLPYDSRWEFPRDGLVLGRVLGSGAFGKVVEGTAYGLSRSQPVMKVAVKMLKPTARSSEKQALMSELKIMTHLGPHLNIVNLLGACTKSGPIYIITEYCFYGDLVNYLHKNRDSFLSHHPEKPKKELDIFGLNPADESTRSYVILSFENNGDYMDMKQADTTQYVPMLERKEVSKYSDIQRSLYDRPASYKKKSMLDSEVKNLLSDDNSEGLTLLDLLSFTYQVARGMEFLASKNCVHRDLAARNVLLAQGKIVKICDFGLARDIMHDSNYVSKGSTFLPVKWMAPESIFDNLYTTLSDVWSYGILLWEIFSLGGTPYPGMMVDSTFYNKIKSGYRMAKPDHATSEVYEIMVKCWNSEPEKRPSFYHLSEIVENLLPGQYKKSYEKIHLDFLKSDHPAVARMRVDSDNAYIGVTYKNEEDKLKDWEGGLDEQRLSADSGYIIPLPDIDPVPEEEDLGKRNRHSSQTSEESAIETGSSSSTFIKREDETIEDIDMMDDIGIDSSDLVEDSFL
assayRemarks: Inhibitory activity against PDGF-Ra phosphorylation by PDGF-AA stimulation using G292
Assay type: cell-based
measurementParameters: Pharmacological Test Example 1; > means inhibition at indicated concentration not more than 50%, < and << not less than 50%; read-out: PDGF (E) IC50

* COc1cc2ncnc(Oc3ccc(NC(=O)OC4CCCCCC4)cc3)c2cc1OC | < 10 nM
* COc1cc2nccc(Oc3ccc(NC(=O)OCCCSc4ccc(C)cc4)cc3)c2cc1OC | < 10 nM

I'm hoping you can list IC50 for every compound here, please.
1. COc1cc2nccc(Oc3ccc(NC(=O)OC4CCCC4)cc3)c2cc1OC
2. CCCCC(CC)OC(=O)Nc1ccc(Oc2ccnc3cc(OC)c(OC)cc23)cc1 (stereo not drawn)

1. < 10 nM
2. < 10 nM

Please give IC50, item by item, for the list that follows.
1. COc1cc2nccc(Oc3cc(C)c(NC(=O)Oc4ccc(C(C)(C)C)cc4)cc3C)c2cc1OC
2. COc1cccc(COC(=O)Nc2cc(C)c(Oc3ccnc4cc(OC)c(OC)cc34)cc2C)c1
3. COc1cc2nccc(Oc3ccc(NC(=O)Oc4c(OC)cccc4OC)cc3)c2cc1OC
4. COc1cc2nccc(Oc3cc(C)c(NC(=O)OCCN4CCOCC4)cc3C)c2cc1OC
5. COc1cc2ncnc(Oc3ccc(NC(=O)OCCCOc4ccccc4Cl)cc3)c2cc1OC
6. COc1cc2nccc(Oc3ccc(NC(=O)Oc4ccccc4C(C)(C)C)c(C)c3C)c2cc1OC

1: 25 nM; 2: 17 nM; 3: < 10 nM; 4: > 100 nM; 5: < 10 nM; 6: 12 nM
